Molecular target: T1, Biotinylated Human CD27 Ligand, HIS, Avitag (ACRO biosystem, CDL-H82Q9) (human, UniProt P32970 39-193, biotinylated (Avitag))
T1 construct: Bought reagent; also called Acro-CD70-his-Bio; CD70-his-Bio; not shown: His tag and Avitag
T1 sequence (looked up): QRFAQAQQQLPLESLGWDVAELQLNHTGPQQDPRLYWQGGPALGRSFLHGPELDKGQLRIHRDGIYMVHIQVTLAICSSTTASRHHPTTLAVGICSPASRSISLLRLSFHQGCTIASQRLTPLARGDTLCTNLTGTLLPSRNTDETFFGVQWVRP
Assay: phage ELISA
OBSERVED_PROPERTY: binding result

phage monoclonal antibody clone #21 (VHH, single-domain antibody (heavy chain variable region alone); also called VHH21; VHH 21) VHH: EVQLLESGGGLVQPGGSLRLSCAASGFTFSNYAMGWVRQAPGKGLEWVSSITGLGGNMYYADSVKGRFTISRDNSKNTLYLQMNSLRAEDTAVYYCARMYYSQGVNNYSYPSTDIWGQGTLVTVSS | binds
